// data source = paper PMC4721923

Hi there, I'd appreciate the recorded pIC50 for every entry that follows.
# Tested on: SK-ES-1 cells (Ewing's sarcoma)
# MEASUREMENT DESCRIPTION: Chemosensitivity assay (MTT-assay), SK-ES-1
# Format: cell-based, human
# CONDITION PARAMETERS: Homo sapiens, SK-ES1, 96 h, 96 hours of incubation, mean ± SEM
pIC50: −log10 of the molar value.

Would you mind telling me what pIC50 value was observed for COC(=O)CCCc1nc2cc(N(CCCl)CCCl)ccc2n1C ? ~6.70

Need pIC50 of CCOC(=O)CCCc1nc2cc(N(CCCl)CCCl)ccc2n1C , thanks. ~6.70

Reported pIC50, compound Cn1c(CCCC(=O)O)nc2cc(N(CCCl)CCCl)ccc21 [Compound 1, bendamustine, reference compound] : ____ ~5.00

---

# System: NCI-H460 cells
# MEASUREMENT DESCRIPTION: Quantification of cell-associated compound by HPLC, NCI-H460
# Assay type: cell-based, human
# CONDITION PARAMETERS: 30 μM, 10 minutes, mean ± SEM
TEST READOUT: amount of cell-associated compound (nmol/10^6 cells)
Enter your answer as a number in nmol/10^6 cells; do not include the unit.

GET /values?readout=amount of cell-associated compound&item= Cn1c(CCCC(=O)OCCN2CCCC2)nc2cc(N(CCCl)CCCl)ccc21 1.89

If you can, please state the reported amount of cell-associated compound value of COC(=O)CCCc1nc2cc(N(CCCl)CCCl)ccc2n1C . 0.28

Sample Cn1c(CCCC(=O)OCCN2CCOCC2)nc2cc(N(CCCl)CCCl)ccc21 — what was its amount of cell-associated compound? 0.59
